Origin of the recorded values: the supplement of paper PMC10567573

B1: EPB41L3 (parent)
chain: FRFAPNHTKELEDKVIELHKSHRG

Variants of: B1
Experiment: protein stability index of a GFP-peptide fusion (GPS, HEK-293T) (PSI 1-6); higher = more stable;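 further: lentivirally expressed fusions sorted by FACS into six bins by GFP to DsRed ratio, PSI derived from sequencing read proportions per bin multiplied by bin number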
Details: c terminus: a fixed tail appended
reported-endpoint: protein stability index

{"mutations": "G24F", "assay-value": 2.31}

Ask: // Input: `V15D` . Output its protein stability index only.
Result: 2.92

Ask: Provide protein stability index value for the following variant: `E12R`
Result: 1.56

Ask: Annotate the variant `K20H` with its measured protein stability index.
Result: 2.44

Ask: Give me measured protein stability index, please, for this variant: `E12N`
Result: 1.74

Ask: Answer with the recorded protein stability index for the variant listed here: `R2P`
Result: 3.82

Ask: Name the recorded protein stability index of the variant listed here: `G24Y`
Result: 1.56

Ask: Read off the recorded protein stability index for `E17T`
Result: 1.86

Ask: Read the entry `F3H` and write its reported protein stability index.
Result: 4.03

Ask: Using the record for `L11P` , state its measured protein stability index.
Result: 1.87
